Test system: SGK1 (human), O00141 [S422D]
Sequence (O00141 whole entry S422D, looked up): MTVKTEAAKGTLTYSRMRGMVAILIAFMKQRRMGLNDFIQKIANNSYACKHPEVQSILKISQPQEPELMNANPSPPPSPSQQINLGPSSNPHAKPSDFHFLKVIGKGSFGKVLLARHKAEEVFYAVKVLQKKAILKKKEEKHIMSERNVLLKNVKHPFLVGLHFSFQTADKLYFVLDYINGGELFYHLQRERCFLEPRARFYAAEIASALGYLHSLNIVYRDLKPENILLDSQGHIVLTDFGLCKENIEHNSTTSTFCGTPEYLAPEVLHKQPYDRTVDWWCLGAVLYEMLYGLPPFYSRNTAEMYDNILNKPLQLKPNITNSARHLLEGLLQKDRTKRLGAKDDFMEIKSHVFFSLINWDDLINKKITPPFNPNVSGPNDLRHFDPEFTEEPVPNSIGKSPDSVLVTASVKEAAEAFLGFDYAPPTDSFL
Assay notes: radiometric filter-binding kinase assay
Conditions used: compound 1.0 µM
Assignment: determine reported residual activity for the given molecules.
One number for each entry, in %.

Below: 3 molecules and their reported residual activity.
                                   molecule   measurement_kind  unit  measured_value
0  N#Cc1c(C2CCNCC2)cc(-c2c(O)cccc2OCC2CC2)nc1N  residual activity     %              96
1  NC1(c2ccc(-c3nc4ccn5c(=O)[nH]nc5c4cc3-c3ccccc3)cc2)CCC1  residual activity     %              85
2  NCC(=O)Nc1ccc(-n2nc(C(F)(F)F)cc2-c2ccc3c(ccc4ccccc43)c2)cc1  residual activity     %              71

For each of the items listed, what is its residual activity?
1. Oc1ccc(/C=C/c2cc(O)cc(O)c2)cc1
2. NC(=O)c1c(NC(=O)C2CC2)sc2c1CCCC2
3. O=C1Nc2nc(-c3c(O)cccc3OCC3CC3)cc(C3CCCNC3)c2CO1 (stereo unspecified)

result:
79
109
55

Need residual activity for each of these molecules.
1. O=C(Nc1nc2cc(C(F)(F)F)cc(NC3CC3)n2n1)c1cccnc1
2. Cc1nc(-c2ccc(OCC(C)C)c(C#N)c2)sc1C(=O)O
3. O=C(NOC[C@H](O)CO)c1ccc(F)c(F)c1Nc1ccc(I)cc1Cl
4. COc1cc(O)c2c(c1)/C=C/C[C@H](O)[C@H](O)C(=O)/C=C\C[C@H](C)OC2=O

result:
100
99
69
95

* * *

Task for the reader: assign each of the following molecules its reported residual activity.
Study target: NEK2 (human)
Assay notes: radiometric filter-binding kinase assay
Conditions used: compound 100.0 µM

Solved entries (count: 3):
                         chemical_structure   measurement_kind  measured_value
0                       COC(=O)/C=C/C(=O)OC  residual activity            100%
1  Cc1cc(N=Nc2cc(S(=O)(=O)O)c(C)cc2C)c(N)cc1O  residual activity            118%
2  N#Cc1c(O)c2c(-c3ccc(-c4ccccc4O)cc3)csc2[nH]c1=O  residual activity             19%

query: Which value of residual activity has been reported for `Cc1ccc2c(c1)C(=O)[C@@]1(O)CCN(c3ccccc3)C1=N2` in the records?
result: 82%

* * *

Study target: INSRR (human)
Assay notes: radiometric filter-binding kinase assay
Conditions used: compound 1.0 µM
Measurement kind: residual activity (%)
Numbers only, in %.

Sample records with residual activity:
Compound	Measured value
Cn1c(=O)c2c(ncn2C)n(C)c1=O	80
COc1ccc(-n2ncc3cnc(Nc4cc(OC)c(OC)c(OCCCN5CCN(C)CC5)c4)nc32)cc1	35

Please go through the list and note residual activity for each compound.
1. N#Cc1c(C2CCNCC2)cc(-c2c(O)cccc2OCC2CC2)nc1N
2. Cc1nc(-c2ccc(OCC(C)C)c(C#N)c2)sc1C(=O)O
3. FC(F)(F)c1ccc(-c2ccc(Oc3cncc4sc(-c5nn[nH]n5)cc34)cc2)cc1
4. c1ccc2c(-c3cnn4cc(-c5ccc(N6CCNCC6)cc5)cnc34)ccnc2c1
5. Cc1ccc(Sc2cnc(Nc3cccc(Br)n3)s2)cc1C(=O)N1CCN(C(=O)CN)CC1

result:
1. 117
2. 66
3. 67
4. 68
5. 80

* * *

Test system: SGK1 (human), O00141 [S422D]
Assay notes: radiometric filter-binding kinase assay
Conditions used: compound 0.1 µM
Kindly state residual activity for each of the entries shown.
One number for each entry, in %.

Compound	Measurement kind	Measured value
NC1(c2ccc(-c3nc4ccn5c(=O)[nH]nc5c4cc3-c3ccccc3)cc2)CCC1	residual activity	90
COc1cc(O)c2c(c1)/C=C/C[C@H](O)[C@H](O)C(=O)/C=C\C[C@H](C)OC2=O	residual activity	106
Cc1cccc(-c2nn(C(=S)Nc3ccccc3)cc2-c2ccnc3ccccc23)n1	residual activity	107
Cc1ccc(-c2ccc3c(ccc4sc5c(c43)NC[C@@H](C)NC5=O)n2)cn1	residual activity	116
CCCCCc1ccc(/C=C/[C@H](O)[C@@H](CO)NC)cc1	residual activity	83

Batch of 3 compounds: report residual activity for each.
1. c1ccc2c(-c3cnn4cc(-c5ccc(N6CCNCC6)cc5)cnc34)ccnc2c1
2. O=C(Nc1ccccc1-c1cn2c(CN3CCNCC3)csc2n1)c1cnc2ccccc2n1
3. NC(=O)c1cc2c(-c3cccc(-c4ccccc4)c3)cnc(N)c2s1

result:
1: 62; 2: 89; 3: 92

// each compound listed below needs its residual activity
1. COc1cc(O)c2c(c1)[C@H]1OC1C[C@H](O)[C@H](O)C(=O)/C=C\C[C@H](C)OC2=O (stereo partly specified)
2. C/C(=C1/C(=O)Nc2ccc(NC(N)=O)cc21)c1ccc[nH]1

result:
1: 91; 2: 58

I would be grateful if you could provide residual activity for each of the following entries.
1. Cn1c(=O)c2c(ncn2C)n(C)c1=O
2. CC1=C(CO)C(=O)O[C@@H]([C@@H](C)[C@H]2CC[C@H]3[C@@H]4C[C@H]5O[C@]56[C@@H](O)C=CC(=O)[C@]6(C)C4CC[C@]23C)C1 (stereo partly specified)

result:
102
110

* * *

Please provide measured residual activity for the entries that follow.
Study target: IKBKE (human) (UniProt Q14164)
Sequence (Q14164 whole entry, looked up): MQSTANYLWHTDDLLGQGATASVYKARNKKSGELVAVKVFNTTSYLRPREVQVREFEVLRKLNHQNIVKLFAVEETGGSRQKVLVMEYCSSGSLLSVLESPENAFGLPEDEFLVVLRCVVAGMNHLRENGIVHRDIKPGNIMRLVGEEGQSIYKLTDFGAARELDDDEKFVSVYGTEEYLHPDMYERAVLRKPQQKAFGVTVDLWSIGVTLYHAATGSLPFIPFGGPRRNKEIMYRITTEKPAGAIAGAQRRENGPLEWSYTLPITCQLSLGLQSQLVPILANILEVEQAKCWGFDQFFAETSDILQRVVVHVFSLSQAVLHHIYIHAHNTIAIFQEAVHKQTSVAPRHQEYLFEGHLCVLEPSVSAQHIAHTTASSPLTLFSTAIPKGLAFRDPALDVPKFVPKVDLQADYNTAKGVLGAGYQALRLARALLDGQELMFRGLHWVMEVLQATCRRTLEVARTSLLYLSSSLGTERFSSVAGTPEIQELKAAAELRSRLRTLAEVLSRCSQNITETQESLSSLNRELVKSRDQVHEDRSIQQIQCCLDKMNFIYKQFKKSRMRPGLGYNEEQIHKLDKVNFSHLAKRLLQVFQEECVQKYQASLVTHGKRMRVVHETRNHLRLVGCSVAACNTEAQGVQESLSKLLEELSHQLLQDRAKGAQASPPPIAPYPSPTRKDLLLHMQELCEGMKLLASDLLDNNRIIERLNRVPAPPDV
Assay notes: radiometric filter-binding kinase assay
Conditions used: compound 0.1 µM
One number for each entry, in %.

>>> print(df.to_string())
           chemical_structure                    study_target  measured_value
0  Cn1c(=O)c2c(ncn2C)n(C)c1=O  IKBKE (human) (UniProt Q14164)              87

Go through the list and state residual activity for each entry.
1. CNc1nc(-c2ccc3c(N)n[nH]c3c2)cc(N2C[C@@H](C(=O)NC3CCCCC3)CC[C@H]2C)n1
2. CCc1cncnc1N1CCN(Cc2nc3cc(C(F)(F)F)ccc3[nH]2)CC1
3. CCn1c(-c2nonc2N)nc2cncc(CNC3CCNCC3)c21
4. COc1cc(O)c2c(c1)/C=C/C[C@H](O)[C@H](O)C(=O)/C=C\C[C@H](C)OC2=O
5. O=C(NCCCNc1nc(Nc2cccc(CN3CCOCC3)c2)ncc1C1CC1)C1CCC1
6. O=C(N[C@@H](COc1ccc2[nH]c(=O)[nH]c2c1)c1ccccc1)c1cccn(Cc2ccc(F)c(F)c2)c1=O
7. Cc1cc(NC(=O)c2cccc(NC(=O)/C=C/CN(C)C)c2)ccc1Nc1nccc(-c2cccnc2)n1

result:
[97, 103, 111, 120, 34, 103, 92]

query: Query (compound): `Cc1ccc(-c2ccc3c(ccc4sc5c(c43)NC[C@@H](C)NC5=O)n2)cn1` ; field requested: residual activity
result: 98

* * *

Study target: UniProt Q9P289
Sequence (Q9P289 whole entry, looked up): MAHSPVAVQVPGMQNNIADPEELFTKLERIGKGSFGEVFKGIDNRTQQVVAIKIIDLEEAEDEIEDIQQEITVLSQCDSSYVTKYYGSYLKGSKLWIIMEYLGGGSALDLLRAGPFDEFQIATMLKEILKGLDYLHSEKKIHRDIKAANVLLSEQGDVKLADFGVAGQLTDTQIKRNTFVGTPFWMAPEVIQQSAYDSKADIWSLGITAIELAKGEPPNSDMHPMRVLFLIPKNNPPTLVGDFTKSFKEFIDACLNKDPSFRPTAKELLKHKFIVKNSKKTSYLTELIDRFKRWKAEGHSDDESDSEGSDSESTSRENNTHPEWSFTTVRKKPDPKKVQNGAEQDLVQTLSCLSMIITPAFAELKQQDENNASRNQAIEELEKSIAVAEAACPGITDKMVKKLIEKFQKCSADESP
Assay notes: radiometric filter-binding kinase assay
Conditions used: compound 10.0 µM
Decide using residual activity: a value greater than or equal to 90% is Satisfied, a smaller one is Not satisfied.

In [3]: df
Out[3]:
                                   compound    study_target  label_value
0  Nc1cccc2c1CN(C1CCC(=O)NC1=O)C2=O (stereo not given)  UniProt Q9P289    Satisfied

Next:
query: Reported residual activity reaches at least 90% for `NC1(c2ccc(-c3nc4ccn5c(=O)[nH]nc5c4cc3-c3ccccc3)cc2)CCC1` ?
result: Satisfied

* * *

Test system: ROCK2 (rat)
Assay notes: radiometric filter-binding kinase assay
Conditions used: compound 1.0 µM; accession and sequence are those of the human protein
Measurement kind: residual activity (%)
Numbers only, in %.

The following molecules have reported results that may help.
In [3]: df
Out[3]:
                         chemical_structure   measurement_kind  unit  measured_value
0  Cc1cc(NC(=O)c2cccc(NC(=O)/C=C/CN(C)C)c2)ccc1Nc1nccc(-c2cccnc2)n1  residual activity     %              80
1  N#Cc1c(C2CCNCC2)cc(-c2c(O)cccc2OCC2CC2)nc1N  residual activity     %              88

Consider the following items and state reported residual activity for each.
1. COc1cc2ncn(-c3cc(OCc4ccccc4S(C)(=O)=O)c(C#N)s3)c2cc1OC
2. C=CC(=O)N1CCC[C@@H](n2nc(-c3ccc(Oc4ccccc4)cc3)c3c(N)ncnc32)C1
3. O=C(Nc1ccccc1-c1cn2c(CN3CCNCC3)csc2n1)c1cnc2ccccc2n1
4. CN1C(=O)[C@@H](Cc2c[nH]c3ccccc23)NC1=S
5. Oc1ccc(/C=C/c2cc(O)cc(O)c2)cc1

result:
[93, 111, 89, 96, 125]

I would be grateful if you could provide residual activity for each of the following entries.
1. NC(=O)c1ccc(-c2ccc(Oc3cncc4sc(-c5nn[nH]n5)cc34)cc2)cc1
2. Cc1cccc(Nc2nn(C)c3ncnc(N)c23)c1
3. Cc1ccc(=O)n(-c2ccccc2)c1

result:
1: 73; 2: 117; 3: 94

Where do the numbers come from? From the kinase profiling compilation of Christmann-Franck et al. (2016).
